Biological target: 5-hydroxytryptamine receptor 3A (Homo sapiens, UniProt P46098); also: assay procedure not described here
Sequence (P46098 whole entry): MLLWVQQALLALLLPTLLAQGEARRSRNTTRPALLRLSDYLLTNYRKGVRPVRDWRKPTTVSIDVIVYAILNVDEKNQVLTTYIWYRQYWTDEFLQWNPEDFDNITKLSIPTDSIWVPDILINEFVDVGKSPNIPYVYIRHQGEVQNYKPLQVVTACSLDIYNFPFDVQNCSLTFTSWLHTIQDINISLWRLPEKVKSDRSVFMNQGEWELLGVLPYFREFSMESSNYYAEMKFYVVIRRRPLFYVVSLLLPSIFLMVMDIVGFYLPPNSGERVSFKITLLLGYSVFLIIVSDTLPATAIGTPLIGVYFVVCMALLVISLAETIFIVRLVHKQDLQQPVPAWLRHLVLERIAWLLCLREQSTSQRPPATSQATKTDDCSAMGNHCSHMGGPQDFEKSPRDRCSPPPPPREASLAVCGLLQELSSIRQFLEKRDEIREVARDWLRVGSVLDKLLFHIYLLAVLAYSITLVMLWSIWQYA
Format: functional
metric: AC50

molecule: NC[C@H]1CC[C@H](C(=O)O)CC1
AC50: > 30 µM
//
molecule: Cc1c(O)c(=O)ccn1C
AC50: > 30 µM

Record request: AC50 value, item CC(=O)NS(=O)(=O)c1ccc(N)cc1 [SULFACETAMIDE]
> 30 µM

Now try CC(C)NCC(O)COc1ccc(COCCOC(C)C)cc1 (centres undefined) .
> 10 µM

###

Values of AC50 reported for D(1A) dopamine receptor (Homo sapiens, UniProt P21728) appear below.

Guide cases for AC50, answers given:
molecule: CCOC(=O)CC(SP(=S)(OC)OC)C(=O)OCC (configuration not stated)
experimental-value: > 30 µM
//
molecule: CCO[C@@H](Cc1ccc(OCCn2c(C)ccc2-c2ccc(SC)cc2)cc1)C(=O)O
experimental-value: > 30 µM
//
molecule: CCS(=O)(=O)N1CC(CC#N)(n2cc(-c3ncnc4[nH]ccc34)cn2)C1
experimental-value: > 30 µM

From here, focus on the item given below.
Please look up its AC50: COC(=O)C1=C(C)NC(C)=C(C(=O)OC)C1c1ccccc1[N+](=O)[O-]
26 µM

###

biological target: UniProt P11229; assay type: functional, cell-based
Sequence (P11229 whole entry): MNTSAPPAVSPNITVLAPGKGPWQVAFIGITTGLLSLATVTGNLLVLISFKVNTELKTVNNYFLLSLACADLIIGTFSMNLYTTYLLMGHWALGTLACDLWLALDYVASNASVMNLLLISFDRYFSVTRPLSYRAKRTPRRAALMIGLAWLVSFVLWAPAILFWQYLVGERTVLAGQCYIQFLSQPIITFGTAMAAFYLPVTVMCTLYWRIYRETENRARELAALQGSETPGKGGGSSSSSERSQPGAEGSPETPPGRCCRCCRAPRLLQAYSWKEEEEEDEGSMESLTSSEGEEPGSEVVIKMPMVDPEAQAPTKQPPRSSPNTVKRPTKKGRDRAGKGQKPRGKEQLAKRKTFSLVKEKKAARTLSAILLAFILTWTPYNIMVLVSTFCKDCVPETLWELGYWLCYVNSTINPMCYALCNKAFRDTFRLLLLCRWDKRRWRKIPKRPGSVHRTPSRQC
Catalogue of compounds with associated AC50

Worked cases, answers included:
compound: CCCCN(CCCC)CCCOC(=O)c1ccc(N)cc1
AC50: > 30 µM
--
compound: Cc1ccc(O)c2ncccc12
AC50: > 30 µM

Okay, next one:
Lookup: AC50 / UniProt P11229 / NCc1ccccc1CC(=O)N[C@@H]1C(=O)N2C(C(=O)O)=C(CSc3nnnn3CC(=O)O)CS[C@H]12 [CEFORANIDE]
> 10 µM

###

target: D(1A) dopamine receptor (Homo sapiens, UniProt P21728); also: assay procedure not described here
Sequence (P21728 whole entry): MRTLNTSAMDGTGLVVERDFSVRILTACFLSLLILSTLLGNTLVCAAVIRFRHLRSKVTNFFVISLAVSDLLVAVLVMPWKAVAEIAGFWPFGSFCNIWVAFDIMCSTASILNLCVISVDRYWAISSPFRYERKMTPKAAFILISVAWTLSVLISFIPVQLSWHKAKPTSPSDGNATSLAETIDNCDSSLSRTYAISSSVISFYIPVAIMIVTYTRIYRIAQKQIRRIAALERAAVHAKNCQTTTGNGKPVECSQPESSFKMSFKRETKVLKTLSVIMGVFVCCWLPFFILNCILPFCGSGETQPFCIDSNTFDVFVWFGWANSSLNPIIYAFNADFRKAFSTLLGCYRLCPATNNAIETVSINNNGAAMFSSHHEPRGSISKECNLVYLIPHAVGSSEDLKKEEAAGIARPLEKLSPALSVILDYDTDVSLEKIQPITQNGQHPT
Property: AC50; scope: individual molecules

// below: answered molecules
molecule: CCC(=O)O[C@H]1[C@H](O[C@@H]2[C@@H](C)[C@H](O[C@H]3C[C@@](C)(OC)[C@@H](O)[C@H](C)O3)[C@@H](C)C(=O)O[C@H](CC)[C@@](C)(O)[C@H](O)[C@@H](C)C(=O)[C@H](C)C[C@@]2(C)O)O[C@H](C)C[C@@H]1N(C)C [ERYTHROMYCIN PROPIONATE]
metric: AC50
experimental-value: > 30 µM

molecule: CC[C@@]1(O)C[C@H](O[C@H]2C[C@H](N(C)C)[C@H](O[C@H]3C[C@H](O)[C@H](O[C@H]4CCC(=O)[C@H](C)O4)[C@H](C)O3)[C@H](C)O2)c2c(cc3c(c2O)C(=O)c2c(O)cccc2C3=O)[C@H]1C(=O)OC [ACLARUBICIN]
metric: AC50
experimental-value: > 30 µM

molecule: CC(N/C(=N\C#N)Nc1ccncc1)C(C)(C)C (stereo not drawn) [PINACIDIL ANHYDROUS]
metric: AC50
experimental-value: > 30 µM

molecule: CC1=NN(c2ccccc2)C(=O)C1 [EDARAVONE]
metric: AC50
experimental-value: > 30 µM

molecule: CCCCN(CCCC)CCCOC(=O)c1ccc(N)cc1 [BUTACAINE]
metric: AC50
experimental-value: > 30 µM

molecule: CN1CCC2=C(C1)c1ccccc1Cc1ccccc12 [SETIPTILINE]
metric: AC50
experimental-value: 0.0882 µM

molecule: C[C@@H]1C[C@H]2[C@@H]3CCC4=CC(=O)C=C[C@]4(C)[C@@]3(F)[C@@H](O)C[C@]2(C)[C@H]1C(=O)CO [DESOXIMETASONE]
metric: AC50
experimental-value: > 30 µM

GET /values?readout=AC50&item= Nc1ccc(/N=N/c2ccccc2)c(N)n1 [PHENAZOPYRIDINE]
9.35 µM
